- SYSTEM_NAME: human ether-à-go-go-related gene (hERG) potassium channel (human);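 note: peak tail current of the secondary pulse compared with the same well before compound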
- Sequence (Q12809 whole entry, looked up): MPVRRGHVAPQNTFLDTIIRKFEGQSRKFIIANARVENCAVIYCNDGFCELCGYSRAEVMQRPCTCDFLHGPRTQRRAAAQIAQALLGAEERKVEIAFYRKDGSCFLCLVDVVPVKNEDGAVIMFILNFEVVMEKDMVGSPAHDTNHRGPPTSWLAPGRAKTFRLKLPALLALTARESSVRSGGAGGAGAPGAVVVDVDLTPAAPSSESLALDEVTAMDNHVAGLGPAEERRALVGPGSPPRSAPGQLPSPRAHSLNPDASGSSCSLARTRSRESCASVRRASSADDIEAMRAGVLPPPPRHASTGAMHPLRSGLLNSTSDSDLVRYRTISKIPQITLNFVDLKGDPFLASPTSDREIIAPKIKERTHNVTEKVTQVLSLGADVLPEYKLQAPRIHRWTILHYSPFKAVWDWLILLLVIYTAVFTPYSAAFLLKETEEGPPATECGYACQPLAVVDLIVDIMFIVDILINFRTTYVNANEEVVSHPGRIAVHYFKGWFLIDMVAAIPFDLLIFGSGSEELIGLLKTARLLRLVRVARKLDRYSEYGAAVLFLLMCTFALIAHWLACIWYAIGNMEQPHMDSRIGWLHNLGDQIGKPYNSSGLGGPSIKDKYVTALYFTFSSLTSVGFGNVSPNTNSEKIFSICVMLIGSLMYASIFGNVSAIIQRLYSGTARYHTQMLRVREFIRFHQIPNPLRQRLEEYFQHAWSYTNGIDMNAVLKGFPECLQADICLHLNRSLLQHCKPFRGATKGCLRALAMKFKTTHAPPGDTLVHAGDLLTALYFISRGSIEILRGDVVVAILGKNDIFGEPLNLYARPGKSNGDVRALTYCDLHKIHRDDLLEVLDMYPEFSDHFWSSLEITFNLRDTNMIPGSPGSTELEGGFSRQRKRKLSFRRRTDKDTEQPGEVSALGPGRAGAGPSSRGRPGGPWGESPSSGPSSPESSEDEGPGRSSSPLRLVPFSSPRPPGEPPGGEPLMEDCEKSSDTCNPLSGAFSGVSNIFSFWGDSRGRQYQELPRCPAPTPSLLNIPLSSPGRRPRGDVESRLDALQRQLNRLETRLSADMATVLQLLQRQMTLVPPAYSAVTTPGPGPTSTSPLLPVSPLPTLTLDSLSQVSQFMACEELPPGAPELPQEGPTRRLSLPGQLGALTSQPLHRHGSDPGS
- ASSAY_PROCEDURE: primary screen, population patch clamp on CHO cells stably expressing hERG; higher = less effect of the substance
Out of some 310,000 compounds screened, about 14,000 (4.5%) showed an effect of 50% or more. Effects have a minus sign here. The entries come from a sample that favours strong results as a whole.
Mark rule not met for hERG current change (%, negative = inhibition) at 10uM values under -20%, and rule met for everything at or above.

>>> df
                                    molecule         label
 0  COc1cccc(C(=O)Nc2cc(-c3cn4cccnc4n3)ccc2C)c1      rule met
 1  O=C(COC(=O)c1c[nH]c(=O)[nH]c1=O)NCc1ccccc1      rule met
 2  Cc1csc(NC(=O)CSc2nnc(-c3ccoc3C)n2C(C)c2ccccc2)n1 (centres unmarked)  rule not met
 3  O=C(c1cccc(NS(=O)(=O)c2ccc(F)c(F)c2)c1)N1CCN(Cc2ccccc2)CC1  rule not met
 4  CCCN(CCC)CCCNC(=O)c1cc2c(-c3ccc(OC)c(OC)c3)nn(C)c2s1      rule met
 5  Cc1csc(NC(=O)CSc2nnc(Cc3cccn3C)n2CCc2ccccc2)n1      rule met
 6  COc1ccc(C)cc1S(=O)(=O)N(C)CC(=O)N1CCC(C)CC1      rule met
 7  O=S(=O)(c1ccccc1)c1nc(-c2ccccc2)oc1NCCCN1CCOCC1  rule not met
 8  Cc1csc(NC(=O)CSc2nnc(-c3ccoc3C)n2CCc2ccccc2)n1  rule not met
 9  O=C(CN1C(=O)NC(Cc2c[nH]c3ccccc23)C1=O)Nc1ccccc1Br (centres unmarked)      rule met
10  Cl.O=C(/C=C/c1ccccc1)Nc1ccc(N2CCCCC2)cc1      rule met
11  Cc1occc1-c1nnc(SCC(=O)Nc2ccccc2)n1C(C)c1ccccc1 (centres unmarked)  rule not met
12  CC(C)[C@H](NC(=O)N1CCn2c1nc1ccccc12)C(=O)N[C@@H](C(=O)O)c1ccccc1      rule met
13      O=C(CSc1nnc(-c2ccccc2Cl)o1)Nc1ccccn1      rule met
14  Cc1ccc(N2CCN(C3=NC(=O)C(Cc4ccccc4)S3)CC2)cc1 (centres unmarked)  rule not met
15     O=C(COC(=O)c1cccc(F)c1)NC(=O)NC1CCCC1      rule met
16  C=CCN(c1ccccc1)S(=O)(=O)c1cccc(C(=O)NC2CCN(Cc3ccccc3)CC2)c1  rule not met
17  O=C1N=C(N2CCN(c3ccccc3)CC2)SC1Cc1ccccc1 (centres unmarked)  rule not met
18  COc1cccc(S(=O)(=O)NC2CCN(C#N)C2)c1 (centres unmarked)      rule met
19  Cn1cccc1Cc1nnc(SCC(=O)Nc2nccs2)n1CCc1ccccc1      rule met
20   c1ccc(-c2nnc(-c3ccncc3)nc2-c2ccccc2)cc1  rule not met
21       CC(=O)N/C(=C\c1ccc(F)cc1)C(=O)N(C)C      rule met
22     COc1ccccc1NS(=O)(=O)c1cccc(C(=O)NN)c1      rule met
23  Cc1c(C(=O)N(C)C)sc2nc(-c3ccccn3)[nH]c(=O)c12      rule met

###

hERG current change (%, negative = inhibition) at 10uM for assorted compounds
- SYSTEM_NAME: human ether-à-go-go-related gene (hERG) potassium channel (human);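 note: peak tail current of the secondary pulse compared with the same well before compound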
- ASSAY_PROCEDURE: primary screen, population patch clamp on CHO cells stably expressing hERG; higher = less effect of the substance
- Description: Briefly, Chinese hamster ovary (CHO) cells stably expressing the hERG channel were dislodged from tissue culture flasks and dispensed into PPC plates. […] During the recording, background leak currents were estimated by a 100 ms step to -80 mV from an initial holding potential of -70 mV and subtracted from the subsequent current measurement. The campaign was conducted in two phases using slight differences in recording protocol. […]
Among all 310,000 compounds or so, about 14,000 (4.5%) showed an effect of 50% or more. The effect is printed as a negative number. Only a selection was taken, and strong results are over-represented in it overall.
READOUT_NAME: hERG current change (%, negative = inhibition) at 10uM (%)

                                   compound  observed_result
0  COc1cc(NS(=O)(=O)c2ccc(NC(=O)c3ccc(C)o3)cc2)nc(OC)n1            -9.23
1     Cn1nnnc1SCC(=O)N1CCN(c2cccc(Cl)c2)CC1            -26.8
2  CCOC(=O)/C=c1\s/c(=C\c2ccc(C(F)(F)F)cc2)c(=O)n1CC(=O)NCc1ccco1             5.47
3  CCOC(=O)C1CCN(CC(O)COc2ccc(C(C)=O)cc2)CC1.Cl (centres unmarked)            -47.7
4  CCOC(=O)C1(Cc2cccc(OC)c2)CCN(C/C=C/c2ccccc2)CC1            -75.9
